Values were extracted from patent US20180305450A1.

- measurementTarget: T1, recombinant biotinylated human PAR2 extracellular domain (residues 1-75), N-terminal AviTag, C-terminal Flag … (human, UniProt P55085 26-75, biotin on the AviTag (enzymatic biotinylation))
- T1 construct: also called Bio-human-PAR2 ECD; human PAR2 ECD; not shown: N-terminal AviTag (Avidity LLC); C-terminal Flag and poly Histidine tags
- T1 sequence (P55085 26-75): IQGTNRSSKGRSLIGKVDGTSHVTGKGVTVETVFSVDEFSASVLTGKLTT
- procedureText: HTRF competition with Par0067 IgG, pH 7.4, scFv
Recorded pIC50 values for a group of binders are listed next.
FYI, pIC50 means -log10 of a concentration in mol per litre.

>  <binder>
PaB670084 scFv (scFv, V domains shown, purified scFv; also called ZZ1PXA-A05) VH: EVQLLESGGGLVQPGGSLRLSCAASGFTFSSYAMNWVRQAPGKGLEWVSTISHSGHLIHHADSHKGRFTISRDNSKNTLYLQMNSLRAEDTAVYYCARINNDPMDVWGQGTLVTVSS VL: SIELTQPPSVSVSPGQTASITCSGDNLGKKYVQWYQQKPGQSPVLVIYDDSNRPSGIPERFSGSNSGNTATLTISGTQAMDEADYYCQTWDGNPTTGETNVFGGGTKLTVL

>  <pIC50>
7.26

$$$$
>  <binder>
PaB670087 scFv (scFv, V domains shown, purified scFv; also called ZZ1ODR-B05) VH: EVQLLESGGGLVQPGGSLRLSCAASGFTFSSYAMNWVRQAPGKGLEWVSTISYHGSHISYADHHKHRFTISRDNSKNTLYLQMNSLRAEDTAVYYCARINNDPMDVWGQGTLVTVSS VL: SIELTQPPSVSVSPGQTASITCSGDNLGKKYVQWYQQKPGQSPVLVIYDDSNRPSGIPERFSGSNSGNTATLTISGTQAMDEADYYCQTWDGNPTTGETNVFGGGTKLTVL

>  <pIC50>
7.39

$$$$

Now for the binder whose pIC50 we want.
Q: Look up pIC50: PaB670090 scFv (scFv, V domains shown, purified scFv; also called ZZ1ODR-F02) VH: EVQLLESGGGLVQPGGSLRLSCAASGFTFSSYAMNWVRQAPGKGLEWVSTISYHGHHISHADHVKHRFTISRDNSKNTLYLQMNSLRAEDTAVYYCARINNDPMDVWGQGTLVTVSS VL: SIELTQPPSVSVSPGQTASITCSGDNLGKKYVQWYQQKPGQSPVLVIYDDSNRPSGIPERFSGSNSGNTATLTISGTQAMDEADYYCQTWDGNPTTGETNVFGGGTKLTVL
Ans: 7.65
